TARGET_UNDER_TEST: wt-HVGH TtIleRS2 (Thermus thermophilus)
Construct: hexa-histidine tag (pET28b(+)) (N); made in house; host or cells: E. coli Rosetta2 (DE3)
Sequence (P56690 1-1043): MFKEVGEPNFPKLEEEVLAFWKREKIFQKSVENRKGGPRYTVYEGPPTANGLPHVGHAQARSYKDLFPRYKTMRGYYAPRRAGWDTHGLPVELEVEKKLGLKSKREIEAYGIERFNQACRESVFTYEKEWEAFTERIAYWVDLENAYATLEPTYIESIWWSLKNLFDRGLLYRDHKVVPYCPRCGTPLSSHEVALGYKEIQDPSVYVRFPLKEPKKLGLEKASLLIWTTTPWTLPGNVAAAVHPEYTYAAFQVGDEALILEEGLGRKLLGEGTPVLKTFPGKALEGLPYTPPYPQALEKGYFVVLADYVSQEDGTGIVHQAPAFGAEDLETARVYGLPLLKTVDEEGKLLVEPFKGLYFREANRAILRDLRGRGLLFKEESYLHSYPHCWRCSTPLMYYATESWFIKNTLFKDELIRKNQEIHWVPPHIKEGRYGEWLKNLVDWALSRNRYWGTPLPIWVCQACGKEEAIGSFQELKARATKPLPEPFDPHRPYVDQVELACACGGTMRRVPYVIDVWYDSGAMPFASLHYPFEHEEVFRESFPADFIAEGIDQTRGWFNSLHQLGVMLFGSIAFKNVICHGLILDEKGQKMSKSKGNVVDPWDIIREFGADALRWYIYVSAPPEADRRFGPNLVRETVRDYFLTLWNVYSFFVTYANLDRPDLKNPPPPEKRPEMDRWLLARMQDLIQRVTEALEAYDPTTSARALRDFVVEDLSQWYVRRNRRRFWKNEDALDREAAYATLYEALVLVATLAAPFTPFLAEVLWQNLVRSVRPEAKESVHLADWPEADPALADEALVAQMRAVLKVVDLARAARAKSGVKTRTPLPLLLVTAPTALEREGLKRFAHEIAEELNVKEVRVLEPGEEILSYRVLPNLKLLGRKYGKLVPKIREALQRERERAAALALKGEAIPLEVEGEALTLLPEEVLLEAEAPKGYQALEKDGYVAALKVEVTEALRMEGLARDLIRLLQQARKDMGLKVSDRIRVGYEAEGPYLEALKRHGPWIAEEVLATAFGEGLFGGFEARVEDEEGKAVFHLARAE
EXPERIMENTAL_PROTOCOL: ATP-PPi exchange assay, mupirocin inhibition of amino acid activation
Type: biochemical
RUN_CONDITIONS: KI (MUP)ATP, amino acid activation assay; ATP as variable substrate; average ± SD of three independent experiments
MEASURED_QUANTITY: Ki (nM)
Numbers only, in nM.

# query: Ki of entry C/C(=C\C(=O)OCCCCCCCCC(=O)O)C[C@@H]1OC[C@H](C[C@@H]2O[C@H]2[C@@H](C)[C@H](C)O)[C@@H](O)[C@H]1O
200

* * *

TARGET_UNDER_TEST: mut-GVHH PmIleRS2 (Priestia megaterium, UniProt A0A0B6AVD3, G56H/H54G)
Sequence (A0A0B6AVD3 1-1032, stated change not applied): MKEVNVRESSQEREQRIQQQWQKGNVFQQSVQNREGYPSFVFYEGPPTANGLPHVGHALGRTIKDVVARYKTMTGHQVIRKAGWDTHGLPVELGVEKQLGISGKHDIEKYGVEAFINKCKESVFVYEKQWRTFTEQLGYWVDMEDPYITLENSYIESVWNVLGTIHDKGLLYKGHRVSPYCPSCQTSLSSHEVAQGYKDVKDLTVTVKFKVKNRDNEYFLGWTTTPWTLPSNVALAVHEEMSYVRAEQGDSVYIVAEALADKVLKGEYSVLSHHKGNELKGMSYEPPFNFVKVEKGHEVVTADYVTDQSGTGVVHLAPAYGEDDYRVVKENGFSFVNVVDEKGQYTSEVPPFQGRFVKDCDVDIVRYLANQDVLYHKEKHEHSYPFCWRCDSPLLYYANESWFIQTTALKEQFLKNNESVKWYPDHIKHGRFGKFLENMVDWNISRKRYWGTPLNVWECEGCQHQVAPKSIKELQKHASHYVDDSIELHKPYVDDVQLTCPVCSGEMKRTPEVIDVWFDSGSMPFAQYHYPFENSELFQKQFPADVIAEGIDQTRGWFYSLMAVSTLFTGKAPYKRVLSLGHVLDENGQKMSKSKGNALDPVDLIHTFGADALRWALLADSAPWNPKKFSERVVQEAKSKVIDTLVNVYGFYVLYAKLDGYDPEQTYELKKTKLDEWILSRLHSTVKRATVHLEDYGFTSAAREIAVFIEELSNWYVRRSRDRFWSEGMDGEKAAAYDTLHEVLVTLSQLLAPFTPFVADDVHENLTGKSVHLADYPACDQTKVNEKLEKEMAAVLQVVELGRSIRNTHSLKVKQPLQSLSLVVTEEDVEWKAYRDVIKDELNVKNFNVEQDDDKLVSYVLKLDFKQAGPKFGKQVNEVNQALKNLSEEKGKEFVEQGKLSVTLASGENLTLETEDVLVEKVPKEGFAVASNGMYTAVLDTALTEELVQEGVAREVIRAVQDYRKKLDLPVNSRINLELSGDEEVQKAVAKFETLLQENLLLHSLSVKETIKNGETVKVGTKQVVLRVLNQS
EXPERIMENTAL_PROTOCOL: ATP-PPi exchange assay, mupirocin inhibition of amino acid activation
Assay type: biochemical, Priestia (Bacillus) megaterium
RUN_CONDITIONS: KI (MUP)ATP, amino acid activation assay; ATP as variable substrate; average ± SD of three independent experiments
MEASURED_QUANTITY: Ki (µM)
Numbers only, in µM.

Recorded Ki for C/C(=C\C(=O)OCCCCCCCCC(=O)O)C[C@@H]1OC[C@H](C[C@@H]2O[C@H]2[C@@H](C)[C@H](C)O)[C@@H](O)[C@H]1O [mupirocin] with mut-GVHH PmIleRS2 (Priestia megaterium, UniProt A0A0B6AVD3, G56H/H54G), please?
480
